- Test system: P. berghei exo-erythrocytic forms
- ASSAY_DETAILS: P. berghei-Luc liver stage assay
- Type: cell-based
- CONDITION_LABEL: HepG2 vs Pb EEF
OBSERVABLE: Selectivity index (SI) = (mammalian cell IC50)/(Pb EEF IC50)
One number for each entry.

See these solved cases before continuing.
COMPOUND | TEST_VALUE
Cc1cc(C)cc(C(=O)N(CC(=O)NCc2ccc(F)cc2)Cc2ccc(C(=O)NO)cc2)c1 [Compound 2m] | 185
Cc1cc(C)cc(C(=O)N(CC(=O)NC2CCCCC2)c2ccc(C(=O)NO)cc2)c1 [Compound 2b] | 2
COc1ccc(CNC(=O)CN(Cc2ccc(C(=O)NO)cc2)C(=O)c2cc(C)cc(C)c2)cc1 [Compound 2l] | 34
Cc1ccc(CNC(=O)CN(Cc2ccc(C(=O)NO)cc2)C(=O)c2cc(C)cc(C)c2)cc1 [Compound 2k] | 70

Dear colleague, please send me the reported Selectivity index (SI) = (mammalian cell IC50)/(Pb EEF IC50) for Cc1cc(C)cc(C(=O)N(CC(=O)NCc2ccc(C(C)(C)C)cc2)Cc2ccc(C(=O)NO)cc2)c1 [Compound 2o] when you can. 2

====

- System: P. berghei exo-erythrocytic forms
- ASSAY_DETAILS: P. berghei-Luc liver stage assay
- Type: cell-based
- CONDITION_LABEL: HepG2 vs Pb EEF
OBSERVABLE: Selectivity index (SI) = (mammalian cell IC50)/(Pb EEF IC50)

See these solved cases before continuing.
MOLECULE | TGT | TEST_VALUE
CC(C)c1ccc(C(=O)N(CC(=O)NCc2ccccc2)Cc2ccc(C(=O)NO)cc2)cc1 [Compound 2h] | P. berghei exo-erythrocytic forms | 289
Cc1cc(C)cc(C(=O)N(CC(=O)NCc2ccccc2)Cc2ccc(C(=O)NO)cc2)c1 [Compound 2j] | P. berghei exo-erythrocytic forms | 131
CNC(=O)CN(Cc1ccc(C(=O)NO)cc1)C(=O)c1ccccc1C [Compound 2t] | P. berghei exo-erythrocytic forms | >2

Continue with the next molecule.
Dear colleague, please send me the reported Selectivity index (SI) = (mammalian cell IC50)/(Pb EEF IC50) for CNC(=O)CN(Cc1ccc(C(=O)NO)cc1)C(=O)c1cc(C)cc(C)c1 [Compound 2s] when you can. 7

====

- Test system: 3D7 line of P. falciparum
- ASSAY_DETAILS: P. falciparum asexual intraerythrocytic growth inhibition
- Format: cell-based
- CONDITION_LABEL: HepG2 vs Pf3D7
OBSERVABLE: Selectivity index (SI) = (mammalian cell IC50)/(P. falciparum IC50)
Numbers only.

See these solved cases before continuing.
MOLECULE | TGT | TEST_VALUE
Cc1cc(C)cc(C(=O)N(CC(=O)NCc2ccccc2)Cc2ccc(C(=O)NO)cc2)c1 [Compound 2j] | 3D7 line of P. falciparum | 259
CNC(=O)CN(Cc1ccc(C(=O)NO)cc1)C(=O)c1cc(C)cc(C)c1 [Compound 2s] | 3D7 line of P. falciparum | 889
CN(C)c1ccc(C(=O)N(CC(=O)NCc2ccccc2)Cc2ccc(C(=O)NO)cc2)cc1 [Compound 2i] | 3D7 line of P. falciparum | 64

Continue with the next molecule.
// fetch Selectivity index (SI) = (mammalian cell IC50)/(P. falciparum IC50); item: Cc1cc(C)cc(C(=O)N(CC(=O)NCc2cccnc2)Cc2ccc(C(=O)NO)cc2)c1 [Compound 2r] ; system: 3D7 line of P. falciparum 530
